- Procedure text: intrinsic clearance, rat
- Format: in vitro ADME
Measurement label: CLint scaled

Report CLint scaled for Cc1nnc2sc3c(NCc4ccc(C(C)(C)O)cc4)ncnc3c2c1C please. 87 mL/min/kg

###

- Tested system: UniProtKB P10635
- Sequence (P10635 whole entry): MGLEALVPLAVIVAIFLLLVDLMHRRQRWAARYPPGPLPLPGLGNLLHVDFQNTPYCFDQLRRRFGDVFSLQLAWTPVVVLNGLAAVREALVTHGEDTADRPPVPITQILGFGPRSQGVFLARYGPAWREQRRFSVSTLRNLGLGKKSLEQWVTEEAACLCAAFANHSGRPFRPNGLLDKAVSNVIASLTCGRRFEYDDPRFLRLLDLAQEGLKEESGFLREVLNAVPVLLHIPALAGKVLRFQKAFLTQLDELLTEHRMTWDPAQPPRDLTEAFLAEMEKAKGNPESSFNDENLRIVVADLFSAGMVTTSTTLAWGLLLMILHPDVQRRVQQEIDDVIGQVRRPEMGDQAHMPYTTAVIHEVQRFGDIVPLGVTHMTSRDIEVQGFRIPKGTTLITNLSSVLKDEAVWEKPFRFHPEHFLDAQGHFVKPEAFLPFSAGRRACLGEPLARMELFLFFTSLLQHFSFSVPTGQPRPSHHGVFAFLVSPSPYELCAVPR
Measurement label: IC50

Tell me reported IC50 for Cc1nnc2sc3c(NCc4ccc(C(C)(C)O)cc4)ncnc3c2c1C , tested with UniProtKB P10635. > 30 µM

###

Documented EC50 across a set of compounds
- Tested system: human mAChR M4 (Homo sapiens)
- Procedure text: mAChR M4 cell-based functional assay (calcium flux), human M4
- Condition label: Human M4 EC50, CHO-K1 hM4-Gqi5 cells; calcium flux; increase in EC20 acetylcholine response
Structures can show the parent of a compound that is named as a salt.

{"columns": ["Compound", "EC50"],
 "data": [
  ["Cc1nnc2oc3c(N4CC5(COC5)C4)ncnc3c2c1C", "4840 nM"],
  ["Cc1nnc2oc3c(NCc4ccc(C(C)(C)O)nc4)ncnc3c2c1C", "9160 nM"],
  ["FC(F)(F)c1cnc(N2CC(Nc3ncnc4c3sc3nccnc34)C2)nc1", "> 10000 nM"],
  ["Cc1nnc2sc3c(N4CC(Oc5cccc(F)c5)C4)ncnc3c2c1C", "1760 nM"],
  ["Cc1cc(C)c2c(n1)oc1c(NC3CN(c4cc(Cl)ncc4Cl)C3)ncnc12 [Compound 60, dihydrochloride]", "1490 nM"],
  ["CC(=O)N1CC(Nc2ncnc3c2sc2nnc(C)c(C)c23)C1", "53 nM"],
  ["Cc1nnc2sc3c(NC4CN(c5ccc(C(F)(F)F)nc5)C4)ncnc3c2c1C", "≥ 10000 nM"],
  ["COCCN(C)c1ncnc2c1sc1nnc(C)c(C)c12", "846 nM"]
]}

We now examine a further compound.
Tell me reported EC50 for Cc1nnc2oc3c(NCc4ccc(C(C)(C)O)cc4)ncnc3c2c1C , tested with human mAChR M4 (Homo sapiens). 2290 nM

###

- Procedure text: fraction unbound in plasma, cyno
- Format: in vitro ADME
- Condition label: cynomolgus monkey, read-out: Cyno Fu (plasma)
Measurement label: fraction unbound
Give a plain numeric answer without units written out.

Report fraction unbound for Cc1nnc2sc3c(NCc4ccc(C(C)(C)O)cc4)ncnc3c2c1C [Compound 76] please. 0.009

###

- Tested system: human mAChR M4 (Homo sapiens, UniProt P08173)
- Procedure text: mAChR M4 cell-based functional assay (calcium flux), human M4
- Condition label: Human M4 EC50 (nM), Table 10; calcium flux, PAM activity with EC20 acetylcholine
Counter-ions that a name gives are not always drawn.
API: label(entry) gives 1 (yes) if the entry's EC50 is strictly smaller than 1000 nM; on equality or larger values it gives 0 (no).

{"columns": ["Molecule", "Qualitative label"],
 "data": [
  ["Cc1cc(C)c2c(n1)sc1c(N3CC4CC4C3)ncnc12 (centres unmarked) [Compound 196]", "1 (yes)"],
  ["Cc1nnc2sc3c(NCc4ccc(F)c(C(=O)N[C@H](C)C(F)(F)F)c4)ncnc3c2c1C [Compound 182]", "0 (no)"],
  ["Cc1cc(C)c2c(n1)sc1c(N3CCCC3)ncnc12 [Compound 199]", "1 (yes)"],
  ["Cc1nc2sc3c(NCC4CCOC4)ncnc3c2c(C)c1Cl (centres unmarked) [Compound 273, dihydrochloride]", "0 (no)"],
  ["Cc1nnc2sc3c(NC4CNC4)ncnc3c2c1C [Compound 88, dihydrochloride]", "0 (no)"],
  ["Cc1nnc2sc3c(NCC45CC(C(C)(C)O)(C4)C5)ncnc3c2c1C [Compound 138]", "0 (no)"]
]}

hey, is EC50 for COc1ccc(CNc2ncnc3c2sc2nnc(C)c(C)c23)cc1OC [Compound 94] lower than 1000 nM or not? 1 (yes)

// repeat for Cc1nnc2sc3c(NCc4ccc(C(C)(O)C5CC5)cc4)ncnc3c2c1C (centres unmarked) [Compound 143] and report 1 (yes)

// repeat for Cc1nnc2sc3c(NCc4ccc(C(=O)NC(C)C(C)(C)CO)cc4)ncnc3c2c1C (centres unmarked) [Compound 158] and report 1 (yes)

// repeat for CCC(C)(O)c1ccc(CNc2ncnc3c2sc2nnc(C)c(C)c23)cc1 (centres unmarked) [Compound 116] and report 1 (yes)

// repeat for Cc1nnc2sc3c(NCc4ccc(-c5ccnn5C)cc4)ncnc3c2c1C [Compound 193] and report 1 (yes)

// repeat for COCCNC(=O)c1cc(CNc2ncnc3c2sc2nnc(C)c(C)c23)ccc1F [Compound 186] and report 1 (yes)

// repeat for CCC(C)(O)c1ccc(CNc2ncnc3c2sc2nnc(C)c(C)c23)c(F)c1 (centres unmarked) [Compound 115] and report 1 (yes)

###

- Procedure text: in vivo
- Condition label: rat, brain
Measurement label: Kp
Give a plain numeric answer without units written out.

Report Kp for Cc1nnc2sc3c(NCc4ccc(C(C)(C)O)cc4)ncnc3c2c1C please. 0.31

###

- Tested system: rat mAChR M4 (Rattus norvegicus)
- Sequence (P08485 whole entry): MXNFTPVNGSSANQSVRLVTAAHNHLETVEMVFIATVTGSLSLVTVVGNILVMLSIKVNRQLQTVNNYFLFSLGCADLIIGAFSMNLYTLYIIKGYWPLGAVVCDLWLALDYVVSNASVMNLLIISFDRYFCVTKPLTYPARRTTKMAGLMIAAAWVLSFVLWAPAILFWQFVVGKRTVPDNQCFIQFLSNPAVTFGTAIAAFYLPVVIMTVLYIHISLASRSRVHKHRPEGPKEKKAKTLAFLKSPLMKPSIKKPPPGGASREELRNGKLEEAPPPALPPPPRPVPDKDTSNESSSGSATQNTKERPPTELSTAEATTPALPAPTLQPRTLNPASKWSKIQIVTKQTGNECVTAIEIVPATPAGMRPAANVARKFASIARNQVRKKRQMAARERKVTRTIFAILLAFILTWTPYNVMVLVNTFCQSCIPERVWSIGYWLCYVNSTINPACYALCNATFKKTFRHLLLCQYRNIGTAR
- Procedure text: mAChR M4 cell-based functional assay (calcium flux), rat M4
- Parameters: dose or concentration left out as unconfirmed
Documented Emax across a set of compounds
// note: answer is a bare numeric in %

{"columns": ["Smiles string", "Emax / %"],
 "data": [
  ["Cc1nnc2sc3c(N4CCC4)ncnc3c2c1C", 75],
  ["Cc1cnc2sc3c(N4CCC4)ncnc3c2c1", 51],
  ["Cc1nnc2sc3c(NC4CCC4)ncnc3c2c1C", 80],
  ["FC(F)(F)c1cnc(N2CC(Nc3ncnc4c3sc3nccnc34)C2)nc1", 46],
  ["Cc1nnc2sc3c(NCc4ccc(C(C)(C)O)cc4)ncnc3c2c1C", 77],
  ["Cc1nnc2sc3c(N(C)C)ncnc3c2c1C", 79],
  ["Cc1nnc2sc3c(NC4CN(c5ncc(C(F)(F)F)cn5)C4)ncnc3c2c1C", 86]
]}

Report Emax for Cc1nnc2sc3c(N4CC(c5ccncc5)C4)ncnc3c2c1C please. 40

###

Documented Emax across a set of compounds
- Tested system: human mAChR M4 (Homo sapiens)
- Sequence (P08173 1-479): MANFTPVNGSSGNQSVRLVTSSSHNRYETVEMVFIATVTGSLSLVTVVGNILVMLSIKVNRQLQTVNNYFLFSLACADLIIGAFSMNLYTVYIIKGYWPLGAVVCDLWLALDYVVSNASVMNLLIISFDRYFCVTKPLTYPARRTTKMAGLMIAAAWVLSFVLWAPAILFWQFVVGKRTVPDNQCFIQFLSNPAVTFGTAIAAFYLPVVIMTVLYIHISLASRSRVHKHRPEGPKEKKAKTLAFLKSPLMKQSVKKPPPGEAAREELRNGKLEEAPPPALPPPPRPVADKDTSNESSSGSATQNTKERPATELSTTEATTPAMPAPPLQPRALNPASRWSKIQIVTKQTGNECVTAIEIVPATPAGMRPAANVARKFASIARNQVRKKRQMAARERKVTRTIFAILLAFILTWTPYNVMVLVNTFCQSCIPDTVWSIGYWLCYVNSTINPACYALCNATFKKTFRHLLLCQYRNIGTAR
- Procedure text: mAChR M4 cell-based functional assay (calcium flux), human M4
- Condition label: Table 10; % ACh maximum at 30 μM
Structures can show the parent of a compound that is named as a salt.

Known Emax results, listed for orientation:
{"columns": ["Compound", "Tested system", "Measurement label", "Reported measurement"],
 "data": [
  ["Cc1nnc2oc3c(NCc4cccc(C5(O)CCC5)c4)ncnc3c2c1C [Compound 300]", "human mAChR M4 (Homo sapiens)", "Emax", "61.1%"],
  ["CC(=O)NC1CN(c2ncnc3c2sc2nnc(C)c(C)c23)C1 [Compound 96]", "human mAChR M4 (Homo sapiens)", "Emax", "60.3%"]
]}

We now examine a further compound.
Report Emax for Cc1nc2sc3c(NC4CN(c5ncc(C(F)(F)F)cn5)C4)ncnc3c2c(C)c1Cl [Compound 272, dihydrochloride] please. 60.6%

###

- Tested system: human mAChR M4 (Homo sapiens, UniProt P08173)
- Procedure text: mAChR M4 cell-based functional assay (calcium flux), human M4
- Condition label: Table 10; % ACh maximum at 30 μM
Structures can show the parent of a compound that is named as a salt.
Documented Emax across a set of compounds
// note: answer is a bare numeric in %

{"columns": ["Compound", "Emax (%)"],
 "data": [
  ["Cc1cc(C)c2c(n1)sc1c(NC3CN(c4ccnc(C5(O)CCC5)c4)C3)ncnc12", 75.4],
  ["Cc1nnc2oc3c(NCc4ccc(C(C)(C)O)cc4)ncnc3c2c1C", 61.2],
  ["Cc1c(Cl)cnc2sc3c(NC4(C)CC4)ncnc3c12", 49],
  ["Cc1nnc2oc3c(NC4CCCC4)ncnc3c2c1C", 45.9]
]}

We now examine a further compound.
Report Emax for COc1ccc(C2CC2Nc2ncnc3c2sc2ncc(Cl)c(C)c23)cc1 (centres unmarked) [Compound 236, dihydrochloride] please. 61.2
